Reference source: patent US4684620A

experiment: Partition coefficient, octanol-water; assay type: physicochemical; conditions: read-out: Partition Coefficient, Octanol-Water, log P
Positions of bridges follow the written chain, without caps; N, C: chain ends. Non-standard residues stand in square brackets, D forms with d. Residues, ends and D or L forms follow the SMILES beside them. dPhg = N[C@@H](C(=O)O)c1ccccc1; Pen = CC(C)(S)[C@H](N)C(=O)O
The label is rule met for logP below 0 and rule not met for logP equal to or exceeding 0.

C[C@@H](O)[C@H](NC(=O)[C@H]1NC(=O)[C@H]([C@@H](C)O)NC(=O)[C@H](CCCCN)NC(=O)[C@@H](Cc2c[nH]c3ccccc23)NC(=O)[C@H](Cc2ccc(O)cc2)NC(=O)[C@@H](NC(=O)[C@H](N)Cc2ccccc2)CSSC1(C)C)C(N)=O    rule met

Given C[C@@H](O)[C@H](NC(=O)[C@H]1NC(=O)[C@H]([C@@H](C)O)NC(=O)[C@H](CCCCN)NC(=O)[C@@H](Cc2c[nH]c3ccccc23)NC(=O)[C@H](Cc2ccccc2)NC(=O)[C@@H](NC(=O)[C@H](N)Cc2ccccc2)CSSC1(C)C)C(=O)O , is recorded logP strictly lower than 0?
rule met

Given C[C@@H](O)[C@H](NC(=O)[C@H]1NC(=O)[C@H]([C@@H](C)O)NC(=O)[C@H](CCCCN)NC(=O)[C@@H](Cc2c[nH]c3ccccc23)NC(=O)[C@H](Cc2ccc(O)cc2)NC(=O)[C@@H](NC(=O)[C@H](N)Cc2ccccc2)CSSC1(C)C)C(=O)O , is recorded logP strictly lower than 0?
rule not met

Given C[C@@H](O)[C@H](NC(=O)[C@@H]1CSSC(C)(C)[C@H](NC(=O)[C@H](N)c2ccccc2)C(=O)N[C@@H](Cc2ccccc2)C(=O)N[C@H](Cc2c[nH]c3ccccc23)C(=O)N[C@@H](CCCCN)C(=O)N[C@@H]([C@@H](C)O)C(=O)N1)C(=O)O [VIII] (H-[dPhg][Pen]F[dW]KTCT-OH; disulfide 2-7) , is recorded logP strictly lower than 0?
rule met
